TARGET_SYSTEM: T1, human APJ receptor (hAPJ) (human, UniProt P35414 1-380)
T1 sequence (looked up): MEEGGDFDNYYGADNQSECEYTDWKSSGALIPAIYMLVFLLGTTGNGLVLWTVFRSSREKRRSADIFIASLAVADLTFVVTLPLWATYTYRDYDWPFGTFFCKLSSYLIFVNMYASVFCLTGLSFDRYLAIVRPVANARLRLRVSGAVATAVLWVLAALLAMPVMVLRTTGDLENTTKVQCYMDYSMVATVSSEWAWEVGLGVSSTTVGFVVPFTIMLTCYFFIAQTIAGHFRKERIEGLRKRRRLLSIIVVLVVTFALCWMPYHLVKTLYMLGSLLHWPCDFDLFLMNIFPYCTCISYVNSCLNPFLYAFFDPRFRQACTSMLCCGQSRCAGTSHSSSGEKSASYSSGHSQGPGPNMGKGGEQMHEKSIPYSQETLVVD
ASSAY_SUMMARY: cell-based or functional assay
Bridges are numbered along the chain shown (N, C = ends). [ ]: non-standard residue; d: D form. pGlu = O=C1CC[C@@H](C(=O)O)N1; d(hCys) = N[C@H](CCS)C(=O)O; dNle = CCCC[C@@H](N)C(=O)O; hCys = N[C@@H](CCS)C(=O)O
Listed below: hAPJ Ca^2+ Flux EC50 values for each entry.
Provide only the numeric value, understood in nM.

Field: example entries. Status: answers known.
Inquiry: Value lookup for hAPJ Ca^2+ Flux EC50; key = Ac-[d(hCys)]RPRLS[hCys]KGP[dF][dA][dF]-OH (disulfide 1-7; SMILES CC(=O)N[C@@H]1CCSSCC[C@@H](C(=O)N[C@@H](CCCCN)C(=O)NCC(=O)N2CCC[C@H]2C(=O)N[C@H](Cc2ccccc2)C(=O)N[C@H](C)C(=O)N[C@H](Cc2ccccc2)C(=O)O)NC(=O)[C@H](CO)NC(=O)[C@H](CC(C)C)NC(=O)[C@H](CCCNC(=N)N)NC(=O)[C@@H]2CCCN2C(=O)[C@H](CCCNC(=N)N)NC1=O) [Ac-(D-hC)*-R-P-R-L-S-(hC)*-K-G-P-f-a-f-OH]
Reply text: 174

Inquiry: Give the measured hAPJ Ca^2+ Flux EC50 of H-RPCLSCK[dNle][dA][dF]-OH (disulfide 3-6; SMILES CCCC[C@@H](NC(=O)[C@H](CCCCN)NC(=O)[C@@H]1CSSC[C@H](NC(=O)[C@@H]2CCCN2C(=O)[C@@H](N)CCCNC(=N)N)C(=O)N[C@@H](CC(C)C)C(=O)N[C@@H](CO)C(=O)N1)C(=O)N[C@H](C)C(=O)N[C@H](Cc1ccccc1)C(=O)O) [H-R-P-C*-L-S-C*-K-(D-Nle)-a-f-OH] .
Reply text: 66.7

Let us examine a further case.
Inquiry: Look up hAPJ Ca^2+ Flux EC50: [pGlu]RPCLSCFGP[dNle][dA][dF]-OH (disulfide 4-7; SMILES CCCC[C@@H](NC(=O)[C@@H]1CCCN1C(=O)CNC(=O)[C@H](Cc1ccccc1)NC(=O)[C@@H]1CSSC[C@H](NC(=O)[C@@H]2CCCN2C(=O)[C@H](CCCNC(=N)N)NC(=O)[C@@H]2CCC(=O)N2)C(=O)N[C@@H](CC(C)C)C(=O)N[C@@H](CO)C(=O)N1)C(=O)N[C@H](C)C(=O)N[C@H](Cc1ccccc1)C(=O)O) [pE-R-P-C*-L-S-C*-F-G-P-(D-Nle)-a-f-OH]
Reply text: 2

Values were extracted from patent US20160108091A1.
